STUDY SYSTEM: OsWOX13 (Oryza sativa, UniProt Q5QMM3 1-267)
Sequence: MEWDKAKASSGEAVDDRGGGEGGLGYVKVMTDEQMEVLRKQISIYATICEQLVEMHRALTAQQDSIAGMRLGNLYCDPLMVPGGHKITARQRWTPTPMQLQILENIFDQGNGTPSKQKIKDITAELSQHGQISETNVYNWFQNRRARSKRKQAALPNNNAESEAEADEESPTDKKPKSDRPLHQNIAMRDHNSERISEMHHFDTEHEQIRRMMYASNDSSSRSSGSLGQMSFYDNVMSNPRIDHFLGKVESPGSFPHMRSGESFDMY
ASSAY REMARKS: protein-binding microarray (RPBM); PBS, 2% BSA, 51.3 ng/ul salmon testes DNA, 50 uM zinc acetate, 200 nM TF, 25 C, 1 h; high values mean tight binding
CONDITION: protein: recombinant; tags: N-terminal polyhistidine and DsRed monomer fusion (pET32a); label: CyDye5-dUTP incorporated in the synthesized complementary strand; 3' TTTTT single-stranded linker to array surface; dsDNA, one strand shown
Over roughly 35,000 sequences, “fluorescence intensity (a.u.)” has its median near 10,000; the highest 2% begin near 52,000. This excerpt belongs to a sample that is enriched for the highest values.
MEASUREMENT KIND: binding signal

Lab book: binding signal of TAAATTTTGACTGATAAGTATAAGTATAAGCGAAAAGATTCGGAGTCACCTAGTGCAG noted as 12400 fluorescence intensity (a.u.)

Lab note: TTCCGGTTCCTGATTGCTTGCTCCACCGATTGACCGATCGCGGAGTCACCTAGTGCAG gave binding signal of 18100 fluorescence intensity (a.u.)

Entry AATGACATGGCAATCTCACCTTGGAGGTTTGTGCTTTGAACGGAGTCACCTAGTGCAG ; binding signal = 4460 fluorescence intensity (a.u.)

In plain terms, CCTCATCCCTGATTGTGATTTTCTTTCCACACCACCCGGACGGAGTCACCTAGTGCAG has a documented binding signal of 19500 fluorescence intensity (a.u.)

Per the record, ATTAATGATTGATAGTCAGTCACTTAGCCATGTTATTTTGCGGAGTCACCTAGTGCAG has binding signal of 65500 fluorescence intensity (a.u.)

Entry under test: TATTATTTATTTTGTTTGTGATTTGCTTTGTTATTAATAGCGGAGTCACCTAGTGCAG . Its binding signal was 8380 fluorescence intensity (a.u.)

Recorded result, GTGATTGATTCGATTGATTGCCGCATCCACAGTTCTTTTCCGGAGTCACCTAGTGCAG , binding signal: 54700 fluorescence intensity (a.u.)

Form field binding signal, entry AATGCTTGATTGCACTTCGCTGTTCAGTTCATCATGCCTACGGAGTCACCTAGTGCAG : 27400 fluorescence intensity (a.u.)

The value of binding signal measured for the sequence ATATGATTATGTGATAATGTTTGAGAGTACAAACAAATGACGGAGTCACCTAGTGCAG turned out to be 19000 fluorescence intensity (a.u.)

###

STUDY SYSTEM: OsWOX13 (Oryza sativa, UniProt Q5QMM3 1-267)
Sequence: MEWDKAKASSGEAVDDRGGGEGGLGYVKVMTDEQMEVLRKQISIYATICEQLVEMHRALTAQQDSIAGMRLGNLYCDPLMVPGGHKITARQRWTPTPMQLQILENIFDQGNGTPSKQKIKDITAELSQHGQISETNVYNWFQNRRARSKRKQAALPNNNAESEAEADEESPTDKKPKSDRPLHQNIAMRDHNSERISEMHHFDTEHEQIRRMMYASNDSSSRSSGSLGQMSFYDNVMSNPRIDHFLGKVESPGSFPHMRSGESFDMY
ASSAY REMARKS: protein-binding microarray (RPBM); PBS, 2% BSA, 51.3 ng/ul salmon testes DNA, 50 uM zinc acetate, 200 nM TF, 25 C, 1 h; high values mean tight binding
CONDITION: protein: recombinant; tags: N-terminal polyhistidine and DsRed monomer fusion (pET32a); label: CyDye5-dUTP incorporated in the synthesized complementary strand; 3' TTTTT single-stranded linker to array surface; dsDNA, one strand shown
Whole data set: some 35,000 sequences, median “fluorescence intensity (a.u.)” near 10,000, cut for the highest 2% near 52,000. The list comes from a sample in which the highest values are over-represented; it also holds close analogues and randomly drawn sequences.
For each of the sequences below, state its binding signal.

Lookup result for TAGATGATTATTATGATAGGATTGATTTGTTTAGAGTCTTCGGAGTCACCTAGTGCAG ; measured binding signal: 46100 fluorescence intensity (a.u.)

# sequence CTGACTTTGTCATACGTCTATGATTTGCCACTGACTTTATCGGAGTCACCTAGTGCAG ; its binding signal = 4530 fluorescence intensity (a.u.)

Entry ATTCATATAATTTGTATCACCTCAATAATAATTGGTATCACGGAGTCACCTAGTGCAG — recorded binding signal = 14700 fluorescence intensity (a.u.)

// sample TGAAAGTAATTTGATGCTATAAGTCAAAGTTAAAGAGATGCGGAGTCACCTAGTGCAG , its binding signal was 3500 fluorescence intensity (a.u.)

Lookup result for AAAGATAATTGAAAAGTAAACTTGTTGACAGACGGAATCCCGGAGTCACCTAGTGCAG ; measured binding signal: 30400 fluorescence intensity (a.u.)

# binding signal (sequence: TTGATTTGAAAGGTACTACCTCTGTTTCAGGTTAGAAAGTCGGAGTCACCTAGTGCAG ) is 3380 fluorescence intensity (a.u.)

Per the records, this sequence ( TAACAAACTATTCCTAATTAATAGATAAACTGCCATGCCGCGGAGTCACCTAGTGCAG ) has binding signal equal to 8390 fluorescence intensity (a.u.)

// recorded binding signal for GTTAGGGTTTTCTTTTGATTGTCAGGGTTTTCTTTTGATTCGGAGTCACCTAGTGCAG : 3960 fluorescence intensity (a.u.)

Recorded result, ATGGGAGGTGAGATTGGGATTGGGAAATAAATGAATGGCTCGGAGTCACCTAGTGCAG , binding signal: 5250 fluorescence intensity (a.u.)
